Target: NGF (nerve growth factor) (Homo sapiens, UniProt P01138 P01138:122-241)
Sequence (P01138 122-241, one chain of several): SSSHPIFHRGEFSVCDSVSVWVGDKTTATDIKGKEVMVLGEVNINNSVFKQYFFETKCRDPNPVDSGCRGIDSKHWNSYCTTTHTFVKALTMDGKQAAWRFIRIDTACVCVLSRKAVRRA
Assay: cell_activity; neurite; TF-1 >0.1
Settings: tags: R&D Systems; chain copies: 2
pIC50: −log10 of the molar value.
Measured pIC50 values are reported for all entries that follow.
readoutType: pIC50

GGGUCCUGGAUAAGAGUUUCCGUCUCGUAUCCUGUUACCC (ssRNA, as 82(1) except dC24) [SEQ ID NO: 82(31)] | 9.56
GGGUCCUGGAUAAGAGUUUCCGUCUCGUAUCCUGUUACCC (ssRNA, as 82(25) except dU18) [SEQ ID NO: 82(38)] | 9.53
GGGUCCUGGAUAAGAGUUUCCGUCUCGUAUCCUGUTACCC (ssRNA, as 82(1) except dT36) [SEQ ID NO: 159] | 9.58
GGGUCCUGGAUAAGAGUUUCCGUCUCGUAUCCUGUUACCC (ssRNA, as 82(25) except 2'-OMe A13) [SEQ ID NO: 82(43)] | 10.06
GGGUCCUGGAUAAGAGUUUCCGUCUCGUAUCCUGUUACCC (ssRNA, as 82(25) except dU19) [SEQ ID NO: 82(39)] | 9.59
